Test system: HBV genome in HEK293T cells transduced with a lentiviral vector
METHOD_DESCRIPTION: Base editing efficiency in Hek293-lentiHBV system (PCR amplicons sequenced on MiSeq)
Type: cell-based, Hepatitis B virus
SETUP_CONDITIONS: base editor Abe7.10
m = 2'-O-methyl; r = 2'-OH (RNA)

| MOLECULE | READING_UNIT | % Editing average |
| --- | --- | --- |
| ABE-41: guide RNA SEQ ID NO: 5513 (nucleic acid, chemistry not fully specified) guide: AGAAGATGAGGCATAGCAGCGTTTTAGAGCTAGAAATAGCAAGTTAAAATAAGGCTAGTCCGTTATCAACTTGAAAAAGTGGCACCGAGTCGGTGCTTTT | % | 58 |
| G-159: guide RNA SEQ ID NO: 5488 (nucleic acid, sugars from the 5' end m3 r93 m3 r1, linkages s3 o93 s3 (s phosphorothioate, o phosphodiester), T or U not given here) guide: GCAAACACUUGGCACAGACCGUUUUAGAGCUAGAAAUAGCAAGUUAAAAUAAGGCUAGUCCGUUAUCAACUUGAAAAAGUGGCACCGAGUCGGUGCUUUU | % | 51 |
